- targetOrTestSystem: hEag1 channels (Homo sapiens, UniProt O95259)
- Sequence (O95259 1-989): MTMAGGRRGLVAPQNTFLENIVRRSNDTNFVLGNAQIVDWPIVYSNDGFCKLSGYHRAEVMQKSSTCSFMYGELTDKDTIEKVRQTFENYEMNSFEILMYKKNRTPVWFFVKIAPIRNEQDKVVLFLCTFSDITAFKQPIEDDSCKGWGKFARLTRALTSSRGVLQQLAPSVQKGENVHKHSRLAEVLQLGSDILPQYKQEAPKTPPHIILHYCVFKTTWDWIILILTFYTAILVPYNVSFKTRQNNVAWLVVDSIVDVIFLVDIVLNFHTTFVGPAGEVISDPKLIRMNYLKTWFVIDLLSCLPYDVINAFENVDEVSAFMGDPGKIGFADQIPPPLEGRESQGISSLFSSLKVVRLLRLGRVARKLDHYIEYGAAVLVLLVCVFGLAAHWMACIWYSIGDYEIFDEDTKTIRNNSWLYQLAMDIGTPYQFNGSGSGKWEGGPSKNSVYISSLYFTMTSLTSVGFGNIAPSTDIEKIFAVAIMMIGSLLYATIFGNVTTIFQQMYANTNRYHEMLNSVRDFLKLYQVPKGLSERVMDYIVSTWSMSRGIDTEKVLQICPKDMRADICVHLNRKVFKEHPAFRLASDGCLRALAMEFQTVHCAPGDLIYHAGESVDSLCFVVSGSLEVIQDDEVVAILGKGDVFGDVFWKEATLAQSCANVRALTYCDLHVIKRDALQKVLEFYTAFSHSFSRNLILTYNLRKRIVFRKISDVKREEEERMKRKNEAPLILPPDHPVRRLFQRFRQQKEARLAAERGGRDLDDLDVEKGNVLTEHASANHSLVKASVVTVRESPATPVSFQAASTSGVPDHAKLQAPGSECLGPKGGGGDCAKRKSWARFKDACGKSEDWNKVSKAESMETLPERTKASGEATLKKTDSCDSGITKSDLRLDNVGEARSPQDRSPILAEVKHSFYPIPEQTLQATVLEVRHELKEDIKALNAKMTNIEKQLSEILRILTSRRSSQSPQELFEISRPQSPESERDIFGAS
- methodNotes: Whole-cell patch-clamp of hEag1 currents in stably transfected HEK-293 cells
- Format: cell-based
- protocolConditions: IC50, whole-cell, pHext//pHint 7.4//8.4
measurementLabel: pIC50
Entry type: numeric. Quantity: pIC50, the -log10 of concentration in molar units.

Tell me measured pIC50 for COc1ccc(CCN2CCC(Nc3nc4ccccc4n3Cc3ccc(F)cc3)CC2)cc1 [astemizole] please.
6.25

====

- targetOrTestSystem: hEag1 channels (Homo sapiens, UniProt O95259)
- Sequence (O95259 1-989): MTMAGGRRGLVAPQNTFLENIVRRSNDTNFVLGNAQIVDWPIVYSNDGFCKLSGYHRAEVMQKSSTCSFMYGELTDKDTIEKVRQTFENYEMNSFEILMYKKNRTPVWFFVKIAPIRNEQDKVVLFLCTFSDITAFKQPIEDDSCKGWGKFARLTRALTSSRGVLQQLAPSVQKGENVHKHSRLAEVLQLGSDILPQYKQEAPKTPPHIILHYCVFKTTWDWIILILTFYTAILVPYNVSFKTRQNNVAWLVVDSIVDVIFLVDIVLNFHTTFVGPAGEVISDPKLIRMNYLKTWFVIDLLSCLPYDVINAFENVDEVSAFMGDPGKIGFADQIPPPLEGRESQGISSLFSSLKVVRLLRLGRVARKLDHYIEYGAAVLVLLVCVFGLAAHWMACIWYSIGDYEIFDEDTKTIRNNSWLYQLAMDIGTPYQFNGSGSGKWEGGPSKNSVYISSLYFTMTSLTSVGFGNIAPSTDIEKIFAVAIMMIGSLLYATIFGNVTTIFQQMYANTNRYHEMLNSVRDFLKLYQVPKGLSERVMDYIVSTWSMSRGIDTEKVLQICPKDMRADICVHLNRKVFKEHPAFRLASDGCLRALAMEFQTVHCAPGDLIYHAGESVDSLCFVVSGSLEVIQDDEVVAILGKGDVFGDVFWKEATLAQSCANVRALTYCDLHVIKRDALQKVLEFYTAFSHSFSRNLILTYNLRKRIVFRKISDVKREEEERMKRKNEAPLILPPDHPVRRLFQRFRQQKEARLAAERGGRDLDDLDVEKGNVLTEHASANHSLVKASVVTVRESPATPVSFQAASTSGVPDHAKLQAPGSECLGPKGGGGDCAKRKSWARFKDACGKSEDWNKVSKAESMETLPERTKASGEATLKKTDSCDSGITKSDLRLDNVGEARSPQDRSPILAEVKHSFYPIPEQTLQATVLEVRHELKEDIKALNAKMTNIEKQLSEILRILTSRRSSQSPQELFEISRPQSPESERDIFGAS
- methodNotes: Whole-cell patch-clamp of hEag1 currents in stably transfected HEK-293 cells
- Assay type: cell-based
- protocolConditions: IC50(V), voltage-independent line through IC50 data, test potentials 20–120 mV
measurementLabel: pIC50
Entry type: numeric. Quantity: pIC50, the -log10 of concentration in molar units.

Tell me measured pIC50 for COc1ccc(CCN2CCC(Nc3nc4ccccc4n3Cc3ccc(F)cc3)CC2)cc1 [astemizole] please.
6.92
